assay.system: poly-(dG.dC)-poly-(dG.dC)
assay.notes: Ethidium bromide displacement assay, poly(dG.dC)-poly(dG.dC)
condition.notes: 50% reduction of ethidium bromide fluorescence, pH 7.0, read-out: FI50 (the source's name)
Protocol: Stock Solutions. A 10X Binding solution was prepared by combining 0.93 ml of an aqueous NaCl solution (5M), 2.0 ml of an aqueous Tris HCl (500 mM) solution, 0.1 ml of an EDTA solution (500 mM) and 46.97 ml of water. […] Determination of concentration of the stock DNA solutions. Poly (dG.dC) - (dG.dC), poly (dA.dt) - (dA.dt) and lambda DNA concentrations were determined as follows: 980 μl of 10X DNA Binding Solution was pipetted into a 1 ml cuvette. […]
Give pIC50 for every item shown.
Give bare numbers, as −log10 of the molar value.

O=C1c2cccc3cc([N+](=O)[O-])cc(c23)C(=O)N1CCNCCOCCN1C(=O)c2cccc3cc([N+](=O)[O-])cc(c23)C1=O [Compound 5]; 7.15

Here's the next entry for you.
Query: Read the entry O=C1c2cccc3cc([N+](=O)[O-])cc(c23)C(=O)N1CCNCCNCCN1C(=O)c2cccc3cc([N+](=O)[O-])cc(c23)C1=O [Compound 22] and write its reported pIC50.
Result: 7.32
